- conditions: 298.15 K, Ring tensiometer
Reported surface tension liquid-gas values for the following compounds.

compound_smiles	scale_unit	surface tension liquid-gas
COCC[N+]1(C)CCOCC1.O=S(=O)([N-]S(=O)(=O)C(F)(F)F)C(F)(F)F	mN/m	50.14
CC[N+](C)(C)CCOC.O=S(=O)([N-]S(=O)(=O)C(F)(F)F)C(F)(F)F	mN/m	47.56
COCC[N+]1(C)CCCC1.O=S(=O)([N-]S(=O)(=O)C(F)(F)F)C(F)(F)F	mN/m	49.22
COCC[N+]1(C)CCCCC1.O=S(=O)([N-]S(=O)(=O)C(F)(F)F)C(F)(F)F	mN/m	44.65
CCC[N+](C)(C)CC.O=S(=O)([N-]S(=O)(=O)C(F)(F)F)C(F)(F)F	mN/m	46.56

* * *

Reported mass density values for the following compounds.
- conditions: 303.15 K; 101.33 kPa; Liquid; Vibrating tube method

compound_smiles	scale_unit	mass density
COCC[N+]1(C)CCCCC1.O=S(=O)([N-]S(=O)(=O)C(F)(F)F)C(F)(F)F	kg/m3	1429
CC[N+](C)(C)CCOC.O=S(=O)([N-]S(=O)(=O)C(F)(F)F)C(F)(F)F	kg/m3	1420.5
COCC[N+]1(C)CCCC1.O=S(=O)([N-]S(=O)(=O)C(F)(F)F)C(F)(F)F	kg/m3	1448.7
COCC[N+]1(C)CCOCC1.O=S(=O)([N-]S(=O)(=O)C(F)(F)F)C(F)(F)F	kg/m3	1495.7
CCC[N+](C)(C)CC.O=S(=O)([N-]S(=O)(=O)C(F)(F)F)C(F)(F)F	kg/m3	1398.8

* * *

- conditions: 313.15 K; 101.33 kPa; Liquid; Direct current cell with electrodes
Could you label it 1 if measured electrical conductivity is 0.3 S/m or higher, and 0 otherwise?

compound_smiles	category
CC[N+](C)(C)CCOC.O=S(=O)([N-]S(=O)(=O)C(F)(F)F)C(F)(F)F	1
CCC[N+](C)(C)CC.O=S(=O)([N-]S(=O)(=O)C(F)(F)F)C(F)(F)F	1
COCC[N+]1(C)CCCCC1.O=S(=O)([N-]S(=O)(=O)C(F)(F)F)C(F)(F)F	0
COCC[N+]1(C)CCCC1.O=S(=O)([N-]S(=O)(=O)C(F)(F)F)C(F)(F)F	1
COCC[N+]1(C)CCOCC1.O=S(=O)([N-]S(=O)(=O)C(F)(F)F)C(F)(F)F	0

* * *

- conditions: 298.15 K; 101.33 kPa; Liquid; Concentric cylinders viscometry
± gives the expanded uncertainty stated by the source.

compound_smiles	viscosity
CCC[N+](C)(C)CC.O=S(=O)([N-]S(=O)(=O)C(F)(F)F)C(F)(F)F	58.79 ± 5.9 mPa·s
COCC[N+]1(C)CCOCC1.O=S(=O)([N-]S(=O)(=O)C(F)(F)F)C(F)(F)F	257.6 ± 26 mPa·s
CC[N+](C)(C)CCOC.O=S(=O)([N-]S(=O)(=O)C(F)(F)F)C(F)(F)F	59.39 ± 6 mPa·s
COCC[N+]1(C)CCCC1.O=S(=O)([N-]S(=O)(=O)C(F)(F)F)C(F)(F)F	52.19 ± 5.2 mPa·s
COCC[N+]1(C)CCCCC1.O=S(=O)([N-]S(=O)(=O)C(F)(F)F)C(F)(F)F	69.89 ± 7 mPa·s

* * *

Reported surface tension liquid-gas values for the following molecules.
- conditions: 353.15 K, Ring tensiometer

compound_smiles	surface tension liquid-gas (mN/m)
CC[N+](C)(C)CCOC.O=S(=O)([N-]S(=O)(=O)C(F)(F)F)C(F)(F)F	40.44
CCC[N+](C)(C)CC.O=S(=O)([N-]S(=O)(=O)C(F)(F)F)C(F)(F)F	40.89
COCC[N+]1(C)CCOCC1.O=S(=O)([N-]S(=O)(=O)C(F)(F)F)C(F)(F)F	44.74
COCC[N+]1(C)CCCC1.O=S(=O)([N-]S(=O)(=O)C(F)(F)F)C(F)(F)F	42.28
COCC[N+]1(C)CCCCC1.O=S(=O)([N-]S(=O)(=O)C(F)(F)F)C(F)(F)F	38.83

* * *

- conditions: 353.15 K; 101.33 kPa; Liquid; Vibrating tube method
Reported mass density values for the following molecules.

compound_smiles	scale_unit	mass density
CCC[N+](C)(C)CC.O=S(=O)([N-]S(=O)(=O)C(F)(F)F)C(F)(F)F	kg/m3	1352.7
COCC[N+]1(C)CCCC1.O=S(=O)([N-]S(=O)(=O)C(F)(F)F)C(F)(F)F	kg/m3	1401.9
COCC[N+]1(C)CCOCC1.O=S(=O)([N-]S(=O)(=O)C(F)(F)F)C(F)(F)F	kg/m3	1449.8
CC[N+](C)(C)CCOC.O=S(=O)([N-]S(=O)(=O)C(F)(F)F)C(F)(F)F	kg/m3	1368.9
COCC[N+]1(C)CCCCC1.O=S(=O)([N-]S(=O)(=O)C(F)(F)F)C(F)(F)F	kg/m3	1383.3

* * *

- conditions: 323.15 K, Ring tensiometer
Numbers after ± are expanded uncertainties.
measurement_label: surface tension liquid-gas

compound_smiles	observed_measurement
COCC[N+]1(C)CCCC1.O=S(=O)([N-]S(=O)(=O)C(F)(F)F)C(F)(F)F	46.18 ± 0.83 mN/m
CCC[N+](C)(C)CC.O=S(=O)([N-]S(=O)(=O)C(F)(F)F)C(F)(F)F	43.95 ± 0.8 mN/m
COCC[N+]1(C)CCOCC1.O=S(=O)([N-]S(=O)(=O)C(F)(F)F)C(F)(F)F	47.64 ± 0.85 mN/m
CC[N+](C)(C)CCOC.O=S(=O)([N-]S(=O)(=O)C(F)(F)F)C(F)(F)F	44.86 ± 0.81 mN/m
COCC[N+]1(C)CCCCC1.O=S(=O)([N-]S(=O)(=O)C(F)(F)F)C(F)(F)F	42.01 ± 0.78 mN/m

* * *

- conditions: 313.15 K; 101.33 kPa; Liquid; Vibrating tube method
measurement_label: mass density (kg/m3)

compound_smiles	measurement_label	observed_measurement
CCC[N+](C)(C)CC.O=S(=O)([N-]S(=O)(=O)C(F)(F)F)C(F)(F)F	mass density	1389.8
COCC[N+]1(C)CCOCC1.O=S(=O)([N-]S(=O)(=O)C(F)(F)F)C(F)(F)F	mass density	1486.4
CC[N+](C)(C)CCOC.O=S(=O)([N-]S(=O)(=O)C(F)(F)F)C(F)(F)F	mass density	1411
COCC[N+]1(C)CCCCC1.O=S(=O)([N-]S(=O)(=O)C(F)(F)F)C(F)(F)F	mass density	1419.8
COCC[N+]1(C)CCCC1.O=S(=O)([N-]S(=O)(=O)C(F)(F)F)C(F)(F)F	mass density	1439.3

* * *

- conditions: 323.15 K; 101.33 kPa; Liquid; Concentric cylinders viscometry
measurement_label: viscosity (mPa·s)

compound_smiles	scale_unit	observed_measurement
CCC[N+](C)(C)CC.O=S(=O)([N-]S(=O)(=O)C(F)(F)F)C(F)(F)F	mPa·s	28.49
COCC[N+]1(C)CCCCC1.O=S(=O)([N-]S(=O)(=O)C(F)(F)F)C(F)(F)F	mPa·s	26
COCC[N+]1(C)CCOCC1.O=S(=O)([N-]S(=O)(=O)C(F)(F)F)C(F)(F)F	mPa·s	77.98
COCC[N+]1(C)CCCC1.O=S(=O)([N-]S(=O)(=O)C(F)(F)F)C(F)(F)F	mPa·s	25.79
CC[N+](C)(C)CCOC.O=S(=O)([N-]S(=O)(=O)C(F)(F)F)C(F)(F)F	mPa·s	23.1

* * *

Reported surface tension liquid-gas values for the following molecules.
- conditions: 313.15 K, Ring tensiometer

compound_smiles	surface tension liquid-gas [mN/m]
COCC[N+]1(C)CCCC1.O=S(=O)([N-]S(=O)(=O)C(F)(F)F)C(F)(F)F	47.34
CC[N+](C)(C)CCOC.O=S(=O)([N-]S(=O)(=O)C(F)(F)F)C(F)(F)F	45.67
CCC[N+](C)(C)CC.O=S(=O)([N-]S(=O)(=O)C(F)(F)F)C(F)(F)F	44.92
COCC[N+]1(C)CCCCC1.O=S(=O)([N-]S(=O)(=O)C(F)(F)F)C(F)(F)F	43.2
COCC[N+]1(C)CCOCC1.O=S(=O)([N-]S(=O)(=O)C(F)(F)F)C(F)(F)F	48.41

* * *

- conditions: 333.15 K; 101.33 kPa; Liquid; Vibrating tube method
± gives the expanded uncertainty stated by the source.
Reported mass density values for the following compounds.

compound_smiles	mass density
COCC[N+]1(C)CCOCC1.O=S(=O)([N-]S(=O)(=O)C(F)(F)F)C(F)(F)F	1468 ± 2 kg/m3
COCC[N+]1(C)CCCCC1.O=S(=O)([N-]S(=O)(=O)C(F)(F)F)C(F)(F)F	1401.7 ± 1.8 kg/m3
COCC[N+]1(C)CCCC1.O=S(=O)([N-]S(=O)(=O)C(F)(F)F)C(F)(F)F	1420.7 ± 1.8 kg/m3
CCC[N+](C)(C)CC.O=S(=O)([N-]S(=O)(=O)C(F)(F)F)C(F)(F)F	1372.1 ± 1.7 kg/m3
CC[N+](C)(C)CCOC.O=S(=O)([N-]S(=O)(=O)C(F)(F)F)C(F)(F)F	1390.3 ± 1.8 kg/m3
